organism: Canis familiaris; assay: Peripheral vasodilating activity in mongrel dog assessed as increase in iliac blood flow at 250 ug, ia; format: functional, Canis lupus familiaris, Artery

{"columns": ["compound", "Activity [mL/min]"],
 "data": [
  ["CC(C)(C)NCC(O)COc1ccc(-c2ncc(C(F)(F)F)[nH]2)c(Cl)c1 (racemic)", -2],
  ["CC(C)(C)NCC(O)COc1ccc(-c2ncc(C(F)(F)F)[nH]2)cc1Cl (racemic)", 5],
  ["Cc1cc(-c2ncc(C(F)(F)F)[nH]2)ccc1OCC(O)CNC(C)(C)C (racemic)", 6],
  ["Cc1cc(OCC(O)CNC(C)(C)C)ccc1-c1ncc(C(F)(F)F)[nH]1 (racemic)", 11]
]}
